RUN_PARAMETERS: buffer; pH 7.4; 200.0 µM
Returns one of yes or no; yes when solubility kinetic is >= 40 µg/mL.

Examples from the recorded data:
Query :: # check: solubility kinetic of CN1CCCC(OC(=O)c2cccc(Cl)c2)C1.Cl (configuration not stated) is greater than or equal to 40 µg/mL
Result :: yes

Query :: Quick one: COc1cc(CN2CCCC(C)C2)ccc1OCc1ccccc1 (configuration not stated)
Result :: yes

Query :: Query Cc1ccc(NC(=O)CN2c3cccc4cccc(c34)S2(=O)=O)cc1 next
Result :: no

Query :: Now consider COc1ccc(N2CCN(CC(=O)Nc3nc(C)cs3)CC2)cc1 and answer again.
Result :: yes

Query :: Input CC1CCc2sc3ncnc(N4CCN(CCO)CC4)c3c2C1 (configuration not stated)
Result :: yes

Query :: Subsequent entry: Cc1ccc(S(=O)(=O)N2CCOCC2)cc1C(=O)OCC(=O)NCCc1ccccc1
Result :: yes

New cases:
Query :: Determine whether this compound has solubility kinetic no lower than 40 µg/mL: O=C(CCSc1nc2ccccc2o1)Nc1ccccc1
Result :: no

Query :: Further, for O=C(Nc1ccc(Oc2cccnc2)nc1)c1ccc(C(F)(F)F)cc1 ?
Result :: no

Query :: Follow-up entry: O=c1cc(-c2ccco2)nc(SCc2cccc(Cl)c2)[nH]1
Result :: no

Query :: Try the compound CC(=O)Nc1ccc(N2CCN(c3ccc(F)cc3)CC2)cc1
Result :: no

Query :: And then Cn1c(/C=C/c2ccccc2)nc2ccccc2c1=O , what is it?
Result :: no

* * *

RUN_PARAMETERS: buffer; pH 7.4; 200.0 µM
solubility kinetic overview
Write the value in µg/mL as a bare number.

Examples with answers:
Query :: Can you share its solubility kinetic? I mean this molecule: Cc1ccc(CONC(=O)c2ccc(OC(F)F)cc2)cc1
Result :: 9.5

Query :: Quick one: COC(=O)Nc1ccc(S(=O)(=O)N2CCC(C(=O)NCc3ccc4c(c3)OCO4)CC2)cc1
Result :: 4

Query :: What do you get for Cc1ccc(F)c(NC(=O)CCOc2ccccc2C)c1 ?
Result :: 25.5

Query :: Another molecule: O=C(Nc1nc2ccsc2c(=O)s1)c1ccco1
Result :: 7.3

Query :: # repeat for CCC1CN(C(=O)NCc2ccc(F)cc2)c2cc(C)ccc2O1 (stereo not given)
Result :: 4.3

Next:
Query :: Name the reported solubility kinetic value associated with the molecule Cc1nc2ccccn2c1-c1ccnc(=S)[nH]1
Result :: 31.8

Query :: For Cc1ccc(OC(C)C(=O)Nc2ccc(F)cc2)c([N+](=O)[O-])n1 (stereo not given) then?
Result :: 39.7

Query :: Follow-up item: Cc1ccc(C)c(NC(=S)NCCc2c[nH]c3ccccc23)c1
Result :: 17.1

Query :: Now this one: CCOc1cccc(/C=C(\C#N)C(=O)NC2CC2)c1
Result :: 27.2

Query :: Same question, O=C(CN1C(=O)S/C(=C/c2ccncc2)C1=O)Nc1ccccc1 this time
Result :: 5.5

* * *

RUN_PARAMETERS: buffer; pH 7.4; 200.0 µM
MEASUREMENT_KIND: log10 solubility kinetic (log10 of the value in µg/mL)
Short version: log10 scale, solubility kinetic, µg/mL.

Example cases with answers are listed next.
Query :: Would you kindly share the measured log10 solubility kinetic for Cc1cc(NC(=O)c2ccc3c(c2)C(=O)N(CC(C)C)C3=O)no1 ?
Result :: 0.32

Query :: Now try O=C(NCCCNC(=O)c1cnccn1)c1ccc(Br)cc1 .
Result :: 1.72

Query :: Another compound: CC(C)(C)c1cc(NC(=O)c2cccs2)no1
Result :: 1.51

Query :: Then C=CCn1cccc(C(=O)Nc2ccc(C)cc2)c1=O ?
Result :: 1.60

Next, consider the following compound.
Query :: Quick check: log10 solubility kinetic of CCc1nc(SCC(=O)OC)c2c3c(sc2n1)COC(C)(C)C3 ?
Result :: 0.87

Value source: PubChem BioAssay AID1996
